Below, each entry is listed alongside its reported CDC, Daudi EC50.
Target: T1, human CD20 (human, UniProt P11836 1-297)
T1 sequence: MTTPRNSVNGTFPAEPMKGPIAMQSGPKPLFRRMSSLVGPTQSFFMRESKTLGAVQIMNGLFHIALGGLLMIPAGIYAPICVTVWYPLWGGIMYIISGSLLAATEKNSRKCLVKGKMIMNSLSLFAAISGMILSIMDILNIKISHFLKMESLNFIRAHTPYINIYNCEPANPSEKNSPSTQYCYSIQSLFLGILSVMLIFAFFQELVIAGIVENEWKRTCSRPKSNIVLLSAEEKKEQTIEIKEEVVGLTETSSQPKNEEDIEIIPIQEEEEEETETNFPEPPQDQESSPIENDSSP
Assay: cell-based or functional assay
Measurement type: CDC, Daudi EC50 (nM)

>>> quantitative_result("9H4-12 (antibody, V domains shown, Fully human IgG, constant region not specified; also called 9H4-12N) VH: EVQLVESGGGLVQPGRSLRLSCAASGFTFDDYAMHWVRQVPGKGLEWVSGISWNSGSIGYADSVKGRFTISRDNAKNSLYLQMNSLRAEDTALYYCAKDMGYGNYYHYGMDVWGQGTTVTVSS VL: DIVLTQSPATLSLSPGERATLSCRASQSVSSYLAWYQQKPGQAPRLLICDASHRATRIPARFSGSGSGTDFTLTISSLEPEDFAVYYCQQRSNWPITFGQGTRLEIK")
51.1
>>> quantitative_result("10F2-13 (antibody, V domains shown, Fully human IgG, constant region not specified; also called 10F2-13N; ab 10F2-13) VH: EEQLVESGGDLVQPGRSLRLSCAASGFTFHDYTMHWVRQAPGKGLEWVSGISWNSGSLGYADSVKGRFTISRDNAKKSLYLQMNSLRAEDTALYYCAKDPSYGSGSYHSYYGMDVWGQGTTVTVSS VL: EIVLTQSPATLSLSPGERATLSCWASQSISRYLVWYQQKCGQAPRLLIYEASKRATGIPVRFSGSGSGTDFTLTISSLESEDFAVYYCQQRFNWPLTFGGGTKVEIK")
0.17
>>> quantitative_result("10E3-17 (antibody, V domains shown, Fully human IgG, constant region not specified; also called 10E3-17N) VH: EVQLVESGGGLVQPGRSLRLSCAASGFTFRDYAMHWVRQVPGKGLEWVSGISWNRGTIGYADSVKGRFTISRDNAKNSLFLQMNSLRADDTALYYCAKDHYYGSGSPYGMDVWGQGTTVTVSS VL: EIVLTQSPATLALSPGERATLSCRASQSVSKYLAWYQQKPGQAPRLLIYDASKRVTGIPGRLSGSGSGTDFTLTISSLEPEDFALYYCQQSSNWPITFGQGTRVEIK")
0.59
